ASSAY TARGET: WDR5 P216L (Homo sapiens, UniProt P61964, P216L)
TEST PROTOCOL: Biolayer interferometry (BLI), P216L
Assay type: binding
CONDITION NOTES: pH 7.5, read-out: koff (dissociation rate constant)
No end group written: not given here.
PARAMETER MEASURED: koff (s⁻¹)

>>> print(df.to_string())
                      substance  units_label  value_observed
0  VNPTGCARSEPKMS-NH2 [MLL3Win]          s⁻¹           0.011

P. EHQTGSARSEGYYP-NH2 [SETd1AWin]
Q. INPTGCARSEPKIL-NH2 [MLL2Win]
R. LNPHGAARAEVYLS-NH2 [MLL4Win]
Output the entries ranked by koff from maximum down to minimum. A complete answer lists every label in the requested sequence.
R, P, Q
(R: 0.22 s⁻¹, P: 0.033 s⁻¹, Q: 0.011 s⁻¹)
